The measurements presented in this section are drawn from patent US10703746B2.

Target: IDH1 R132C (Homo sapiens, UniProt O75874, R132C)
Sequence (O75874 whole entry R132C): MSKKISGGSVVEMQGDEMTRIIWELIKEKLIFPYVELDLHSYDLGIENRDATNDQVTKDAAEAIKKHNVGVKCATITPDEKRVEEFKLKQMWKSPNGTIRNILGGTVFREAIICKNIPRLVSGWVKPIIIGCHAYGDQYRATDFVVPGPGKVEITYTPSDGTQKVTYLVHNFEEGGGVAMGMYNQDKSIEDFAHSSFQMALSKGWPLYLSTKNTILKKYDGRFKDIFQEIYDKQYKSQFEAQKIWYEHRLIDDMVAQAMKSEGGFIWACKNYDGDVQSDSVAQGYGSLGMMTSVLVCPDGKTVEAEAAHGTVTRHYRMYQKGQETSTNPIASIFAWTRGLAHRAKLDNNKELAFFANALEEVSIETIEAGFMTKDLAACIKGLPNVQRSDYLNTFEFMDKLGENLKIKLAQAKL
Experiment: IDH1 R132C enzymatic assay (NADPH depletion coupled to diaphorase/resazurin)
Type: biochemical
Conditions: IDH1 R132C enzymatic inhibition, IC50 class
pIC50: −log10 of the molar value.
measurement.type: pIC50

Query string: Input CCc1cccc(CC)c1-n1c(CC(C)C)c(C(=O)NCC(O)C(F)(F)F)cc(-c2nc(-c3ccc(Cl)cc3)cs2)c1=O (centres unmarked) , output reported pIC50.
Result string: > 6.52

Query string: // Input: "COc1ccc(OC)c(-n2c(=O)c(-c3nc(-c4ccc(Cl)cc4)cs3)cc3c(O)cncc32)c1" . Output its pIC50 only.
Result string: < 4.70

Query string: Fill in reported pIC50 for this entry: "CC(C)Sc1ccccc1-n1c2c(cc(-c3nc(-c4ccc(Cl)cc4)cs3)c1=O)C(=O)CC(C)(C)C2"
Result string: 5.30 to 6.00

Query string: Supply pIC50 value. Item: "COc1ccc(OC)c(-n2c3c(cc(-c4nc(-c5ccc(Cl)cc5)cs4)c2=O)C=CC(C)(C)C3)c1"
Result string: 5.30 to 6.00

Query string: Identify the reported pIC50 for the following entry. CCc1cccc(CC)c1-n1c(C)c(C(=O)N2CCC(NC)C2)cc(-c2nc(-c3ccc(Cl)cc3)cs2)c1=O (centres unmarked)
Result string: 5.30 to 6.00
